- ASSAYED SYSTEM: UniProtKB P22460
- PROTOCOL DETAILS: Inhibition of human Kv1.5 channel expressed in CHO cells by high throughput planar patch clamp assay
Answer each item with its documented pIC50.
One number for each entry, as −log10 of the molar value.

- MOLECULE: "O=P(c1ccccc1)(c1ccccc1)N(c1cccnc1)c1cccnc1"
  ASSAYED SYSTEM: "UniProtKB P22460"
  MEASURED NUMBER: 5.80
- MOLECULE: "c1ccc([C@H]([C@@H](c2ccccc2)N2CCCCC2)N2CCCCC2)cc1"
  ASSAYED SYSTEM: "UniProtKB P22460"
  MEASURED NUMBER: 5.77
- MOLECULE: "COCCN(c1cccnc1)P(=O)(c1ccccc1)c1ccccc1"
  ASSAYED SYSTEM: "UniProtKB P22460"
  MEASURED NUMBER: 6.21
- MOLECULE: "O=P(NCc1cccnc1-c1cccc(Cl)c1)(c1ccccc1)c1ccccc1"
  ASSAYED SYSTEM: "UniProtKB P22460"
  MEASURED NUMBER: 6.48
- MOLECULE: "O=P(c1ccccc1)(c1ccccc1)C(c1ccccc1)c1cccnc1 (racemic)"
  ASSAYED SYSTEM: "UniProtKB P22460"
  MEASURED NUMBER: 7.00

Each of the following entries comes with a recorded value; kindly state pIC50 for each.
1. CCCN(c1cccc(S(C)(=O)=O)c1)P(=O)(c1ccccc1)c1ccccc1
2. CCCN(c1cccnc1)P(=O)(c1ccccc1)c1ccccc1
3. O=P(c1ccccc1)(c1ccccc1)N(Cc1ccccn1)Cc1ccccn1
4. O=P(c1ccccc1)(c1ccccc1)C(c1cccnc1)c1cccnc1

6.03
6.92
5.89
6.74

Each of the following entries comes with a recorded value; kindly state pIC50 for each.
1. O=P(c1ccccc1)(c1ccccc1)C(c1cccnc1)N1CCCCC1 (racemic)
2. CCCN(c1cncnc1)P(=O)(c1ccccc1)c1ccccc1
3. O=P(NCc1cccnc1-c1cc(Cl)cc(Cl)c1)(c1ccccc1)c1ccccc1

1. 6.85
2. 6.00
3. 7.10

Each of the following entries comes with a recorded value; kindly state pIC50 for each.
1. CCCNC(c1cccnc1)P(=O)(c1ccccc1)c1ccccc1 (racemic)
2. N#Cc1cccc(-c2ncccc2CNP(=O)(c2ccccc2)c2ccccc2)c1
3. O=P(c1ccccc1)(c1ccccc1)N(Cc1ccccn1)c1cccnc1
4. O=P(NCc1ccccc1-c1cccnc1)(c1ccccc1)c1ccccc1

6.12
6.27
6.28
5.64

====

Observed IC50, system Voltage-gated inwardly rectifying potassium channel KCNH2 (Homo sapiens, UniProt Q12809).

For orientation, consider the following solved cases.
- SMILES STRING: "CCCN(c1cccc(C#N)c1)P(=O)(c1ccccc1)c1ccccc1"
  ASSAYED SYSTEM: "Voltage-gated inwardly rectifying potassium channel KCNH2 (Homo sapiens, UniProt Q12809)"
  IC50: "> 33 µM"
- SMILES STRING: "COc1ccc(-c2ncccc2NP(=O)(c2ccccc2)c2ccccc2)cc1"
  ASSAYED SYSTEM: "Voltage-gated inwardly rectifying potassium channel KCNH2 (Homo sapiens, UniProt Q12809)"
  IC50: "> 33 µM"
- SMILES STRING: "N#CCCCN(c1cccnc1)P(=O)(c1ccccc1)c1ccccc1"
  ASSAYED SYSTEM: "Voltage-gated inwardly rectifying potassium channel KCNH2 (Homo sapiens, UniProt Q12809)"
  IC50: "> 33 µM"

Each of the following entries comes with a recorded value; kindly state IC50 for each.
1. COCCN(c1cccnc1)P(=O)(c1ccccc1)c1ccccc1
2. CCCN(c1cccc(S(C)(=O)=O)c1)P(=O)(c1ccccc1)c1ccccc1

1. > 33 µM
2. > 33 µM

Each of the following entries comes with a recorded value; kindly state IC50 for each.
1. O=P(Nc1cccnc1)(c1ccccc1)c1ccccc1
2. O=P(Nc1cc(F)ccc1-n1cccn1)(c1ccccc1)c1ccccc1
3. O=P(c1ccccc1)(c1ccccc1)N(Cc1ccccn1)c1cccnc1
4. CCCN(c1cccnc1)P(=O)(c1ccccc1)c1ccccc1
5. O=P(NCc1ccccc1-c1cccnc1)(c1ccccc1)c1ccccc1

> 33 µM
> 33 µM
> 33 µM
> 33 µM
> 33 µM

Record request: IC50 value, item O=P(c1ccccc1)(c1ccccc1)N(Cc1ccccn1)Cc1ccccn1
> 33 µM

====

- ASSAYED SYSTEM: Potassium voltage-gated channel subfamily A member 5 (Homo sapiens)
- Sequence (P22460 whole entry): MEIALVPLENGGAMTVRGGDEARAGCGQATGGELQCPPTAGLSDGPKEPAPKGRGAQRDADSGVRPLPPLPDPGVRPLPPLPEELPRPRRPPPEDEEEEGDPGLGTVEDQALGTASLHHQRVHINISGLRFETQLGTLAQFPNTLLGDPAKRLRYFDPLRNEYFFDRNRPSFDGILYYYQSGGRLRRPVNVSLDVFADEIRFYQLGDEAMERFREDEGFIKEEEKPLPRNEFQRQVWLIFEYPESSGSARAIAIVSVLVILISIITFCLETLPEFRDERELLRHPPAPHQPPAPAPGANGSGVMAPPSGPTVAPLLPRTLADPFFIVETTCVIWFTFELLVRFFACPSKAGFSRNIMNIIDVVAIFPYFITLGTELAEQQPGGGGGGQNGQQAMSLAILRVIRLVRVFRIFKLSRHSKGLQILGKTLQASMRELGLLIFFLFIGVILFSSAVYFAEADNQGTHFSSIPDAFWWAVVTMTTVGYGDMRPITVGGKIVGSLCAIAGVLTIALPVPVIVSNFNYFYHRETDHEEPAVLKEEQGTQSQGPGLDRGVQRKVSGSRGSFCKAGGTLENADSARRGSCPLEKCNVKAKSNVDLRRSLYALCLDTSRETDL
- PROTOCOL DETAILS: Inhibition of human Kv1.5 channel expressed in CHO cells by high throughput planar patch clamp assay
- Assay type: cell-based
Answer each item with its documented log10 IC50.
Reminder: these figures are log10 of reported IC50, in nM before transformation.

- SMILES STRING: "O=P(Nc1cc(F)ccc1-n1cccn1)(c1ccccc1)c1ccccc1"
  log10 IC50: 3.61
- SMILES STRING: "CCCN(c1cccc(C#N)c1)P(=O)(c1ccccc1)c1ccccc1"
  log10 IC50: 2.30
- SMILES STRING: "N#CCCCN(c1cccnc1)P(=O)(c1ccccc1)c1ccccc1"
  log10 IC50: 3.28
- SMILES STRING: "O=P(NCc1cccnc1-c1cccnc1)(c1ccccc1)c1ccccc1"
  log10 IC50: 3.43

Turning to the following compound.
Record COc1ccc(-c2ncccc2NP(=O)(c2ccccc2)c2ccccc2)cc1 : what is its log10 IC50 with Potassium voltage-gated channel subfamily A member 5 (Homo sapiens)?
4.23

====

- PROTOCOL DETAILS: Oral bioavailability in rat
- Format: ADME, organism-based
- EXPERIMENTAL PARAMETERS: in vivo
VALUE KIND: bioavailability
Respond with a number, then the unit of measure.

Record request: bioavailability value, item CCCN(c1cccnc1)P(=O)(c1ccccc1)c1ccccc1
55%

====

- PROTOCOL DETAILS: Clearance in rat
- Format: ADME, organism-based
- EXPERIMENTAL PARAMETERS: in vivo
VALUE KIND: clearance

Record request: clearance value, item CCCN(c1cccnc1)P(=O)(c1ccccc1)c1ccccc1
11 mL/min/kg

====

- PROTOCOL DETAILS: Lipophilicity, log D of compound at pH 7.4
- Format: physicochemical
- EXPERIMENTAL PARAMETERS: buffer
VALUE KIND: logD
One number for each entry.

- SMILES STRING: "CCCN(c1cccnc1)P(=O)(c1ccccc1)c1ccccc1"
  VALUE KIND: "logD"
  MEASURED NUMBER: 2.6

Turning to the following molecule.
Record request: logD value, item CC(C)[C@@H]1CC[C@@H](C)C[C@@H]1P(=O)(c1ccccc1)c1ccccc1
6

====

- ASSAYED SYSTEM: Intermediate conductance calcium-activated potassium channel protein 4 (Homo sapiens, UniProt O15554)
- Sequence (O15554 whole entry): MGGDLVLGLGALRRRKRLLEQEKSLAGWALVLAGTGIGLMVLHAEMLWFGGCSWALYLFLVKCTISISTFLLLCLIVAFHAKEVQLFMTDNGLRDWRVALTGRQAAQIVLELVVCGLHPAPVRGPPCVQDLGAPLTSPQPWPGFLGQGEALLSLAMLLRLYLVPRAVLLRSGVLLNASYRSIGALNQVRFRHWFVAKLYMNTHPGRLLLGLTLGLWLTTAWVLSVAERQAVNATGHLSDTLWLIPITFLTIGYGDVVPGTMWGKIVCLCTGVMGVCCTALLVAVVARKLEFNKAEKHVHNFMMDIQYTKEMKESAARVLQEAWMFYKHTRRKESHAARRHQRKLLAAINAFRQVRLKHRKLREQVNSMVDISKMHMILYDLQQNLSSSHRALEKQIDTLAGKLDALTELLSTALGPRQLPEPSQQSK
- PROTOCOL DETAILS: Inhibition of IK channel (unknown origin)
VALUE KIND: IC50 (µM)
One number for each entry, in µM.

- COMPOUND: "O=P(NCc1cccnc1-c1cc(Cl)cc(Cl)c1)(c1ccccc1)c1ccccc1"
  MEASURED NUMBER: 13

Each of the following entries comes with a recorded value; kindly state IC50 for each.
1. N#CCCCN(c1cccnc1)P(=O)(c1ccccc1)c1ccccc1
2. O=P(c1ccccc1)(c1ccccc1)C(c1ccccc1)c1cccnc1 (racemic)
3. O=P(c1ccccc1)(c1ccccc1)C(c1cccnc1)N1CCCCC1 (racemic)

[31, 0.5, 1.8]

====

- PROTOCOL DETAILS: Solubility of the compound at pH 7.4
- Assay type: physicochemical
- EXPERIMENTAL PARAMETERS: buffer
VALUE KIND: solubility (µM)
Give bare numbers, in µM.

Record request: solubility value, item CCCN(c1cccnc1)P(=O)(c1ccccc1)c1ccccc1
91

====

- ASSAYED SYSTEM: Intermediate conductance calcium-activated potassium channel protein 4 (Homo sapiens)
- PROTOCOL DETAILS: Inhibition of IK channel (unknown origin)
Answer each item with its documented IC50.
Give bare numbers, in µM.

For orientation, consider the following solved cases.
- COMPOUND: "O=P(NCc1cccnc1-c1cccc(Cl)c1)(c1ccccc1)c1ccccc1"
  IC50 (µM): 4.9
- COMPOUND: "N#Cc1cccc(-c2ncccc2CNP(=O)(c2ccccc2)c2ccccc2)c1"
  IC50 (µM): 7.7
- COMPOUND: "O=P(c1ccccc1)(c1ccccc1)C(c1cccnc1)c1cccnc1"
  IC50 (µM): 1
- COMPOUND: "CCCN(c1cccnc1)P(=O)(c1ccccc1)c1ccccc1"
  IC50 (µM): 14

Each of the following entries comes with a recorded value; kindly state IC50 for each.
1. O=P(c1ccccc1)(c1ccccc1)N(Cc1ccccn1)c1cccnc1
2. CCCNC(c1cccnc1)P(=O)(c1ccccc1)c1ccccc1 (racemic)
3. O=P(NCc1cccnc1-c1cccnc1)(c1ccccc1)c1ccccc1
4. CCCN(c1cccc(C#N)c1)P(=O)(c1ccccc1)c1ccccc1
5. O=P(Nc1cc(F)ccc1-n1cccn1)(c1ccccc1)c1ccccc1

[10, 14, 33, 2.7, 7.8]
